Exercise: for every item that follows, state its recorded IC50.
Biological target: full-length beta-Catenin (Uniprot ID P35222) (Homo sapiens (Human)) (UniProt P35222)
Sequence (P35222 whole entry): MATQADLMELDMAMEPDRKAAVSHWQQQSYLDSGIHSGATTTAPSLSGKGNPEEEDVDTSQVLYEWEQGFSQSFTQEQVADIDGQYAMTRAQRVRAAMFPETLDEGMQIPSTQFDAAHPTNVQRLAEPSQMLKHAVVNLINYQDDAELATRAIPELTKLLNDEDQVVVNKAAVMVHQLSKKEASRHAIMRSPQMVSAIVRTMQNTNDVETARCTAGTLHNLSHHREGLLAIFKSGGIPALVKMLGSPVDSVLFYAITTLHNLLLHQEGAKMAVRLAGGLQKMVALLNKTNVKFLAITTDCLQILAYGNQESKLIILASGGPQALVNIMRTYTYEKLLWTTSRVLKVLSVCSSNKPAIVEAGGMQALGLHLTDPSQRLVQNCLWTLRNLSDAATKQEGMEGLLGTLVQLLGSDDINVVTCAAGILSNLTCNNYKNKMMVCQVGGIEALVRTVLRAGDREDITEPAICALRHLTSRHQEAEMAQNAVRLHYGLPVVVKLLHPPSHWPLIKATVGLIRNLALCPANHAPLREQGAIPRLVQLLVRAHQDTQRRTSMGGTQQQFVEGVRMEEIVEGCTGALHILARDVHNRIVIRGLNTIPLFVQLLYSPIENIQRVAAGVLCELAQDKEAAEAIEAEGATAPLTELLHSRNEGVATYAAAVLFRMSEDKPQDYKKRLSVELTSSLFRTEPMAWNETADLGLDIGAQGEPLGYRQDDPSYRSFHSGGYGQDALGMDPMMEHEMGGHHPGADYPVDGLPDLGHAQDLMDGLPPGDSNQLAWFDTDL
Assay: fluorescence polarization competition against 5FAM-TCF4(10-53) on full-length beta-catenin
Starred links: 1 amine or outer side, 2 acyl side, 3 side chain; linkers in the order of their positions; H or OH if unused. Positions of bridges follow the written chain, without caps; N, C: chain ends. Non-standard residues stand in square brackets, D forms with d. Primed or numbered codes have the meaning given here. *: point of attachment. PyrS2″ = (S)-3-amino-1-((pent-4-en-1-yloxy)carbonyl)pyrrolidine-3-carboxylic acid (stapling residue), C=CCCCOC(=O)N1CC[C@@](N[*:1])(C(=O)[*:2])C1; B5(5) = 2,2-bis(4-pentenyl)glycine, 2-amino-2-(pent-4-en-1-yl)hept-6-enoic acid (stitching residue), C=CCCCC(CCCC=C)(N[*:1])C(=O)[*:2]; PyrS2 = (S)-3-amino-1-((pent-4-en-1-yloxy)carbonyl)pyrrolidine-3-carboxylic acid, C=CCCCOC(=O)N1CC[C@@](N[*:1])(C(=O)[*:2])C1; B5(3) = 2,2-bis(4-pentenyl)glycine (stitching residue), C=CCCCC(CCCC=C)(N[*:1])C(=O)[*:2]; Phe(2-Cl) = N[C@@H](Cc1ccccc1Cl)C(=O)O; 2Nal = N[C@@H](Cc1ccc2ccccc2c1)C(=O)O; Bta = N[C@@H](Cc1csc2ccccc12)C(=O)O; αAllylPro = C=CC[C@@]1(C(=O)O)CCCN1; tBuAla = CC(C)(C)C[C@H](N)C(=O)O; iPr = CC(C)*
Numeric answer only, unit nM assumed.

Query: Please give the measured IC50 for this binder: Ac-[αAllylPro]D[tBuAla][B5(3)]DDK(iPr)AFL[PyrS2″][Phe(2-Cl)][Bta]T-NH2 (staple 1-4, 4-11) [I-1276]
Response: 10

Query: Would you kindly repeat that for Ac-[αAllylPro]D[tBuAla][B5(3)]DDK(iPr)AFT[PyrS2″][Phe(2-Cl)][Bta]T-NH2 (staple 1-4, 4-11) [I-1273] ?
Response: 9

Query: Would you kindly repeat that for Ac-[αAllylPro]D[tBuAla][B5(5)]DDAAFK(iPr)[PyrS2][Phe(2-Cl)][Bta]T-NH2 (staple 1-4, 4-11) [I-1279] ?
Response: 12

Query: Would you kindly repeat that for Ac-[αAllylPro]D[tBuAla][B5(3)]DTAAFT[PyrS2″][2Nal][Bta]S-NH2 (staple 1-4, 4-11) [I-1270] ?
Response: 3700

Query: Would you kindly repeat that for Ac-[αAllylPro]D[tBuAla][B5(5)]DEAAFK(iPr)[PyrS2][Phe(2-Cl)][Bta]T-NH2 (staple 1-4, 4-11) [I-1282] ?
Response: 34
